Data origin: paper PMC4336329

Target: human ether-à-go-go-related gene (hERG) potassium channel (human, UniProt Q12809);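 further: peak tail current of the secondary pulse compared with the same well before compound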
Sequence (Q12809 whole entry, looked up): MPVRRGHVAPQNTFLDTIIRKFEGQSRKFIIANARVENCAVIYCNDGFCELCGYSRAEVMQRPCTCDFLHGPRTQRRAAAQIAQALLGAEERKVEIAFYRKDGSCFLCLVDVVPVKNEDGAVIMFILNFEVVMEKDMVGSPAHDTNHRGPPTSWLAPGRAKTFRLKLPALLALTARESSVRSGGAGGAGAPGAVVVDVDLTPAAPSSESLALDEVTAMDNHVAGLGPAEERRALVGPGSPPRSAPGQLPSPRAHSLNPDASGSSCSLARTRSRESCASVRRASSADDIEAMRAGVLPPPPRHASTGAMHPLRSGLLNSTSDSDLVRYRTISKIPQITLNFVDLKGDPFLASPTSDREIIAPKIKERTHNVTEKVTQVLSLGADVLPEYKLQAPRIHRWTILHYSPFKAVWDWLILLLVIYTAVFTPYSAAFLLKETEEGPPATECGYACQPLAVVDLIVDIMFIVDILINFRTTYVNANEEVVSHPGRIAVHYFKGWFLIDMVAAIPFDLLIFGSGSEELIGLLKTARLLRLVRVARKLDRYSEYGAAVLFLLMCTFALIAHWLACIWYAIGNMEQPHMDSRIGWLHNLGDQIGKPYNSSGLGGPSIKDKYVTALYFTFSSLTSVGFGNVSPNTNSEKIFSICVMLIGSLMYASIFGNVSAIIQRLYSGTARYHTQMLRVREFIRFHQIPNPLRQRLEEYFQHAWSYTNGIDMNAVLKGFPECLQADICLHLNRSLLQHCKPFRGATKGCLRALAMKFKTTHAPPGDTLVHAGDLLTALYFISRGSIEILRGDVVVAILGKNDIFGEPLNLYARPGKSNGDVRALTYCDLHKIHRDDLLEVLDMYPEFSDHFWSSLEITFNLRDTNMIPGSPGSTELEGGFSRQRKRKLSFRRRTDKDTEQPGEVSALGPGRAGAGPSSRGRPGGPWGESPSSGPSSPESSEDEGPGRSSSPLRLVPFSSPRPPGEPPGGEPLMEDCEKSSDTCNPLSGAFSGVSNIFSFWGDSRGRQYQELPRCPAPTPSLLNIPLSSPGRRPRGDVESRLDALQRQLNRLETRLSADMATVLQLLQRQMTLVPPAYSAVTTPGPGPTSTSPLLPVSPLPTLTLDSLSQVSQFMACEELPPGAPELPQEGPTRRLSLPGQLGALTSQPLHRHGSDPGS
Experiment: primary screen, population patch clamp on CHO cells stably expressing hERG; higher = less effect of the substance
In all, about 310,000 compounds went through this assay and about 14,000 (4.5%) showed an effect of 50% or more. The effect is printed as a negative number. For the sample, strong results were picked, then their nearest neighbours and some compounds at random.
measured_attribute: hERG current change (%, negative = inhibition) at 10uM (%)
Only the number, expressed in %, is required.

Examples from the recorded data:
| molecule | unit | experimental_result |
| --- | --- | --- |
| C=C(C)COc1ccc2c(C)c(CC(=O)N3C[C@H]4C[C@@H](C3)c3cccc(=O)n3C4)c(=O)oc2c1 | % | -48.5 |
| CON(C)c1nc(Oc2ccc(=O)[nH]n2)nc(N(C)C)n1 | % | -9.3 |
| COc1ccc(CCNC(=O)c2cccc(S(=O)(=O)N3CCOCC3)c2)cc1OC | % | 1.15 |
| COc1ccc(C(=O)C2CCCN(C(=O)c3cccnc3OC)C2)cc1F (stereo not shown) | % | -4.56 |
| O=C(C1CCN(Cc2ccc(Cl)cc2)CC1)N1CCN(Cc2ccc3c(c2)OCO3)CC1 | % | -66.6 |
| C=CCOc1ccccc1CN1CCCN(C)CC1 | % | 6.51 |
| CC(=NCC1CCCO1)C1=C(O)CC(C)(C)CC1=O (stereo not shown) | % | -5.04 |
| Cc1coc2cc3oc(=O)c(CC(=O)N4C[C@H]5C[C@@H](C4)c4cccc(=O)n4C5)c(C)c3cc12 | % | -41.5 |

**Query** Could you please provide reported hERG current change (%, negative = inhibition) at 10uM for OCC1(CCOc2ccccc2)CCN(Cc2ccccc2C(F)(F)F)CC1 ? Thanks!
**Result** -34.2

**Query** Could you please provide reported hERG current change (%, negative = inhibition) at 10uM for Nc1ccc(C2(c3ccc(N)cc3)CCCCC2)cc1 ? Thanks!
**Result** 22.1

**Query** Could you please provide reported hERG current change (%, negative = inhibition) at 10uM for OCC1(CCOc2ccccc2)CCN(Cc2ccc(OC(F)F)cc2)CC1 ? Thanks!
**Result** -79

**Query** Could you please provide reported hERG current change (%, negative = inhibition) at 10uM for Cc1c(CC(=O)N2C[C@H]3C[C@@H](C2)c2cccc(=O)n2C3)c(=O)oc2c(C)c(O)ccc12 ? Thanks!
**Result** 4.94

**Query** Could you please provide reported hERG current change (%, negative = inhibition) at 10uM for CCOc1ccccc1CN1CCC(CO)(CCOc2ccccc2)CC1 ? Thanks!
**Result** -80.2

**Query** Could you please provide reported hERG current change (%, negative = inhibition) at 10uM for COc1ccc2c(C)c(CC(=O)N3C[C@H]4C[C@@H](C3)c3cccc(=O)n3C4)c(=O)oc2c1OC ? Thanks!
**Result** -1.03
